The measurements presented in this section are drawn from patent US10632127B2.

- protocol: Pharmacokinetic assessment in male Wistar rats (i.v.)
- Assay type: in vivo, rat
- measurement conditions: rat, plasma, iv, 13a 1.6 mg/kg i.v., 0.25 h, read-out: Plasma concentration of 13a
reported endpoint: concentration at 0.25 h (ng/mL)
Give a bare numeral; the unit ng/mL is implied.

Kindly note the recorded concentration at 0.25 h for CC(=O)N[C@@H](CCC(=O)NCCNC(=O)OCCN1C(=O)[C@@H](NC(=O)[C@@](C)(O)C(=O)NCC(F)(F)C(F)(F)F)[C@@H](C)Oc2ccc(F)cc21)C(=O)O [Compound 13a] , which is 295

----------
- protocol: Pharmacokinetic assessment in male Wistar rats (i.v.)
- Assay type: in vivo, rat
- measurement conditions: rat, kidney, iv, 13a 1.6 mg/kg i.v., 4 h
reported endpoint: concentration at 4 h (ng/g)
Give a bare numeral; the unit ng/g is implied.

Kindly note the recorded concentration at 4 h for CC(=O)N[C@@H](CCC(=O)NCCNC(=O)OCCN1C(=O)[C@@H](NC(=O)[C@@](C)(O)C(=O)NCC(F)(F)C(F)(F)F)[C@@H](C)Oc2ccc(F)cc21)C(=O)O [Compound 13a] , which is 16.6
